Values from patent US6930114B2

- Measured on: PDE 10a (Homo sapiens)
- Construct: Full-length recombinant PDE 10a was expressed in Sf9 insect cells; made in house; host or cells: Sf9 insect cells (Bac-to-Bac baculovirus system); crude lysate supernatant used
- Sequence (Q9Y233 1-779 isoform Q9Y233-1): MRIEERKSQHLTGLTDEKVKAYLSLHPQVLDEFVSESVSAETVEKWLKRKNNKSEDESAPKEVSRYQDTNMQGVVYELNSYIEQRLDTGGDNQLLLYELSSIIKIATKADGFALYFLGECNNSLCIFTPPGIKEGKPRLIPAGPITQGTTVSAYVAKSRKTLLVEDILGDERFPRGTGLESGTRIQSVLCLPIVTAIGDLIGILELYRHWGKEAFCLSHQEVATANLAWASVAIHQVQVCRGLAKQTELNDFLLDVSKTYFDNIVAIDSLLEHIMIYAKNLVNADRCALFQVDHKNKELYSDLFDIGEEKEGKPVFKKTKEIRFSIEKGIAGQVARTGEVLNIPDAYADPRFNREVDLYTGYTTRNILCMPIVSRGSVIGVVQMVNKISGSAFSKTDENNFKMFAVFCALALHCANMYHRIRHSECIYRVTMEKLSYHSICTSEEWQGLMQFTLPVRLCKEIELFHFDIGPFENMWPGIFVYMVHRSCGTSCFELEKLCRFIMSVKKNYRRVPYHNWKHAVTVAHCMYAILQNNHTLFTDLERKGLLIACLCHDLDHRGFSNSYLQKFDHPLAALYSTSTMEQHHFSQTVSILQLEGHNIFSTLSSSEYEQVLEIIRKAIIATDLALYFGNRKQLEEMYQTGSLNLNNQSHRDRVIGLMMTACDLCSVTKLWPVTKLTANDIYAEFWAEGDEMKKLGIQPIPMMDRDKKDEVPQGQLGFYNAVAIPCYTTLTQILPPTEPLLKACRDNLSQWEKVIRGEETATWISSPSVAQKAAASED
- Assay summary: In vitro enzyme inhibition assay (3H-cAMP scintillation proximity assay)
- Format: biochemical
- Experimental setup: full-length recombinant PDE 10a, Sf9 cell lysate; Examples of part b (Table 1b)
Readout type: pIC50
Numbers only, as −log10 of the molar value.

Entry "CCOC(=O)c1c(-c2cc(O)cc(O)c2)c(C)n2c1-c1cc(OC)c(OC)cc1CC2" : reported pIC50 = ?
6.96
